experiment: CCTE_Shafer_MEA_dev_firing_rate_mean: CCTE's Neural Network Formation Assay for Mean Firing Rate, Shafer Lab (AID 2284031);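 also: AUC of well mean spike rate recorded on DIV 5 7 9 and 12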
The source made the active and inactive calls. The calls were made as follows: active = hit-call score of the fitted dose curve at least 0.9, where 1 is the maximum; inactive = score below 0.9.
Answer with one of the outcomes Y (active), N (inactive)

These solved cases illustrate the format of a correct answer.
>>> label_value("CN(C)CCOC(c1ccccc1)c1ccccc1")
"N"
>>> label_value("O=CC(F)(F)C(F)(F)C(F)(F)C(F)F")
"N"
>>> label_value("O=C(O)C(F)(F)OC(F)(F)C(F)(F)OC(F)(F)C(F)(F)OC(F)(F)C(F)(F)C(F)(F)C(F)(F)F")
"N"
>>> label_value("O=C(F)C(F)(F)C(F)(F)C(F)(F)C(=O)F")
"N"
>>> label_value("O=C(C=C(O)C(F)(F)F)C(F)(F)F")
"N"
>>> label_value("O=C1NS(=O)(=O)c2ccccc21")
"N"
>>> label_value("CN(Cc1cnc2nc(N)nc(N)c2n1)c1ccc(C(=O)N[C@@H](CCC(=O)O)C(=O)O)cc1")
"Y"
>>> label_value("CC(C)c1c(C(=O)Nc2ccccc2)c(-c2ccccc2)c(-c2ccc(F)cc2)n1CC[C@@H](O)C[C@@H](O)CC(=O)O")
"Y"
>>> label_value("COC(=O)C(F)(F)C(F)(F)C(F)(F)C(F)(F)C(F)(F)F")
"N"
>>> label_value("O=CC(F)(F)C(F)(F)C(F)(F)F")
"N"

Next item in the queue.
INPUT: Identify the outcome logged in this assay for the compound shown: O=C(O)CCC(F)(F)C(F)(F)C(F)(F)C(F)(F)C(F)(F)F
OUTPUT: N

---

experiment: ATG_GRE_CIS: Attagene CIS-FACTORIAL HepG2 Assay for human Glucocorticoid Response Elements (GRE) (AID 2282947); conditions: HepG2 GRE cis-reporter, Attagene multiplex mRNA; actives raise or lower the signal
The source made the active and inactive calls. How the source made its calls: active means hit-call score of the fitted dose curve at least 0.9, where 1 is the maximum; inactive means score below 0.9.
AC50 by entry:

Take a look at these entries with their results.
>>> value_observed("O=S(=O)(c1ccc(OCc2ccccc2)cc1)c1ccccc1O")
"42.4 µM (active)"
>>> value_observed("O=C(CCCN1CCC(O)(c2ccc(Cl)cc2)CC1)c1ccc(F)cc1")
"52 µM (active)"
>>> value_observed("CCCCCCCCCCCC(=O)NCCCN(C)C")
"14.9 µM (active)"
>>> value_observed("CCOC(=O)c1nc(C(Cl)(Cl)Cl)n(-c2ccc(Cl)cc2Cl)n1")
"169 µM (active)"
>>> value_observed("CCCCCCCCCCCCCCCCCC[N+](C)(C)Cc1ccccc1")
"79.2 µM (active)"

Now consider a different compound.
INPUT: Provide AC50 value for the following compound: COc1ccccc1NC(=O)c1cc2ccccc2cc1O
OUTPUT: 100 µM (active)

---

assay: Tanguay_ZF_120hpf_CRAN: Oregon State University Tanguay Lab 120 Hour Post-fertilization zebrafish Assay for Craniofacial Malformation (AID 2284397)
Calls of active or inactive are those of the source. How the source made its calls: active means hit-call score of the fitted dose curve at least 0.9, where 1 is the maximum; inactive means score below 0.9.
Answer with one of the outcomes active, inactive

INPUT: Identify the outcome logged in this assay for the molecule shown: O=P(O)(O)CCC(F)(F)C(F)(F)C(F)(F)C(F)(F)C(F)(F)C(F)(F)C(F)(F)C(F)(F)F
OUTPUT: inactive

INPUT: Identify the outcome logged in this assay for the molecule shown: O=P(O)(O)CCC(F)(F)C(F)(F)C(F)(F)C(F)(F)C(F)(F)C(F)(F)F
OUTPUT: inactive

INPUT: Identify the outcome logged in this assay for the molecule shown: CN(CCO)S(=O)(=O)C(F)(F)C(F)(F)C(F)(F)C(F)(F)C(F)(F)C(F)(F)C(F)(F)C(F)(F)F
OUTPUT: active

INPUT: Identify the outcome logged in this assay for the molecule shown: O=C(O)C(F)(F)OC(F)(F)C(F)(F)OC(F)(F)C(F)(F)OC(F)(F)C(F)(F)C(F)(F)C(F)(F)F
OUTPUT: inactive

INPUT: Identify the outcome logged in this assay for the molecule shown: O=C(O)CCC(F)(F)C(F)(F)C(F)(F)C(F)(F)C(F)(F)F
OUTPUT: inactive

Source: PubChem BioAssay (EPA / NIEHS)
